Form field: binding signal (one value per entry).
Molecular target: GST-Rok-C97-191 (Bacillus subtilis subsp. subtilis str. …, UniProt O34857 97-191)
Sequence: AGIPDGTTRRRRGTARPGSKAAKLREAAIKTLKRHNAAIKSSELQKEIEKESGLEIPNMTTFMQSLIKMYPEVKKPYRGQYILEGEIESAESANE
Assay: protein binding microarray; Rok is a gene silencer of Bacillus subtilis; high values mean tight binding
Settings: protein: recombinant; tags: GST (pTH5325, pDEST15-Magic modified); dsDNA, one strand shown
Whole data set: some 33,000 sequences, median “e-score” near -0.038, cut for the highest 2% near 0.33. Only a selection was taken, and the highest values are over-represented in it overall.
Note: unit E-score is implicit; provide only the numeric part.

residue sequence: TACCCTCA
units label: E-score
binding signal: -0.129
--
residue sequence: ATACCTAC
units label: E-score
binding signal: 0.333
--
residue sequence: ACTAGAGA
units label: E-score
binding signal: 0.118
--
residue sequence: AAGCAAGC
units label: E-score
binding signal: -0.165

Find binding signal for ACGTGGCG on GST-Rok-C97-191 (Bacillus subtilis subsp. subtilis str. …, UniProt O34857 97-191) and write it down.
-0.166

State binding signal (GST-Rok-C97-191 (Bacillus subtilis subsp. subtilis str. …, UniProt O34857 97-191)) of TACTATAA .
0.408

State the measured binding signal (GST-Rok-C97-191 (Bacillus subtilis subsp. subtilis str. …, UniProt O34857 97-191)) of AGTAAATA
0.425

Given ACATTCGA , report its binding signal on GST-Rok-C97-191 (Bacillus subtilis subsp. subtilis str. …, UniProt O34857 97-191).
0.071

Write binding signal of ATTAAAAT ; system used: GST-Rok-C97-191 (Bacillus subtilis subsp. subtilis str. …, UniProt O34857 97-191)
0.218

Give measured binding signal for GCGATGCC (GST-Rok-C97-191 (Bacillus subtilis subsp. subtilis str. …, UniProt O34857 97-191)).
-0.131
